tested on: NCI-H838; experiment: Antiproliferative activity against human NCI-H838 cells assessed as inhibition of cell viability incubated for 3 to 5 days by Celltiter-Glo luminescent assay; assay type: functional, cell-based
quantity.kind: EC50 (µM)
The reply should be a number in µM, with the unit left off.

Challenge: # EC50 lookup, item CNC(=O)Nc1ccc2c(c1)CC[C@@]21OC(=O)N(CC(=O)N(Cc2ccc(F)cc2)[C@@H](C)C(F)(F)F)C1=O [A-485]
Response given: 6.99

====

target: Dual specificity mitogen-activated protein kinase kinase 1 (Homo sapiens, UniProt Q02750); experiment: Inhibition of MEK1 (unknown origin)
Sequence (Q02750 whole entry): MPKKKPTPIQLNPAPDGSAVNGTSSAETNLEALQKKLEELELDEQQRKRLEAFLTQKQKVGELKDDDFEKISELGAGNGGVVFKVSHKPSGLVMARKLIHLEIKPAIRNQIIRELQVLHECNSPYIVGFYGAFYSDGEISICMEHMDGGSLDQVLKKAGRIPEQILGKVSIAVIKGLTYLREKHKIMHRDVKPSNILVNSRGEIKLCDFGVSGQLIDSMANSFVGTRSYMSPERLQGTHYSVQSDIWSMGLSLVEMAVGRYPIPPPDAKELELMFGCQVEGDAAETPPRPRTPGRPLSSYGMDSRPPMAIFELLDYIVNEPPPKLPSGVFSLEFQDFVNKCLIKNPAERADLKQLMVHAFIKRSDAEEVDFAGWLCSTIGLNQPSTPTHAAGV
quantity.kind: IC50

Challenge: Please tell me: IC50 of "CNC(=O)Nc1ccc2c(c1)CC[C@@]21OC(=O)N(CC(=O)N(Cc2ccc(F)cc2)[C@@H](C)C(F)(F)F)C1=O" , system Dual specificity mitogen-activated protein kinase kinase 1 (Homo sapiens, UniProt Q02750)?
Response given: > 10 µM
